Data provenance is patent US20100292231A1.

Property: pEC50; scope: individual compounds
STUDY_TARGET: TYRO3 (RSE) (Homo sapiens)
Sequence (Q06418 41-890): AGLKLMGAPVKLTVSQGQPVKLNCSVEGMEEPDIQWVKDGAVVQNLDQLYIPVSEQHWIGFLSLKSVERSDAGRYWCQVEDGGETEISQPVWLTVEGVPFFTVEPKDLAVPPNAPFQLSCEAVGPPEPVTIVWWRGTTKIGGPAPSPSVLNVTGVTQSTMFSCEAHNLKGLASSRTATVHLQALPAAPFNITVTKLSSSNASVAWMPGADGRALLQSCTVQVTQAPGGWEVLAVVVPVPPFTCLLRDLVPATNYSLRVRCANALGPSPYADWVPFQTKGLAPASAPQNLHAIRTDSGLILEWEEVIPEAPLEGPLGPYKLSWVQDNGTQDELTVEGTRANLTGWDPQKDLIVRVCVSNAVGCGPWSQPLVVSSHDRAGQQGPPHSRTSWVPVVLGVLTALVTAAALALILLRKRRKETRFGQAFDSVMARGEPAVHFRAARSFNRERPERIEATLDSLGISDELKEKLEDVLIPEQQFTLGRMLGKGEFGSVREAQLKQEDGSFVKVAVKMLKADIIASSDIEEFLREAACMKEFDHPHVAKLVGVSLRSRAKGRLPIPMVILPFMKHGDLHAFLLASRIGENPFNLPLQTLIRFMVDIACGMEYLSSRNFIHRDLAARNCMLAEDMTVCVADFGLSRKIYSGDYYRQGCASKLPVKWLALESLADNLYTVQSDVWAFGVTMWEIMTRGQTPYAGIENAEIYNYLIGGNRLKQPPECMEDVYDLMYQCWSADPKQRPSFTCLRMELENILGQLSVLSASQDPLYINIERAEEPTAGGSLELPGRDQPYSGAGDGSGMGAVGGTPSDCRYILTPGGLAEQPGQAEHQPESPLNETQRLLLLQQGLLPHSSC
EXPERIMENT: SelectScreen kinase specificity survey
CONDITIONS: estimated, abridged dose response curve, read-out: Kinase inhibitory activity EC50
Experimental: Testing of the compounds described in this invention was carried out using the SelectScreen™ platform from Invitrogen, Inc. (Carlsbad. Calif., USA) and the details of its performance are readily viewed via the web by linking to: http://www.invitrogen.com/downloads/SelectScrn_Brochure.pdf. Briefly, the approach is based on treating each specific kinase with a unique substrate and optical reporter system in the presence of ATP at 100 micromolar. […]
Units for pEC50: none; it is -log10 of a concentration expressed in mol/L.

Measured pEC50 for this entry CCN(CC)CCNc1ccc2ncn3c4ccc(O)cc4c(=O)c1c23 [Symadex, reference compound] on TYRO3 (RSE) (Homo sapiens): 5.61

Attention now shifts to the item below.
Measured pEC50 for this entry CN(C)CCCNc1ccc2ncn3c4ccc5[nH]ncc5c4c(=O)c1c23 on TYRO3 (RSE) (Homo sapiens): 5.45
